Hey, just so you know, these numbers are from patent US8822517B2.

# target_or_system: serotoninergic 5-HT2A receptor (Homo sapiens)
# assay_details: Binding assay 5-HT2A (h), [3H]ketanserin, HEK-293 cells
# Design: expressed in transfected cells; host or cells: HEK-293 cells
# experimental_parameters: read-out: 5-HT2A
inhibition at 1 µM values by entry
recorded_metric: inhibition at 1 µM (%)

[[record]]
smiles = "O=S(=O)(NCCCN1CCN(c2cccc3c2OCCO3)CC1)c1cccc(Cl)c1"
target_or_system = "serotoninergic 5-HT2A receptor (Homo sapiens)"
recorded_metric = "inhibition at 1 µM"
measured_value = 4

[[record]]
smiles = "Cc1c(S(=O)(=O)NCCCCN2CCN(c3noc4ccccc34)CC2)sc2ccc(F)cc12"
target_or_system = "serotoninergic 5-HT2A receptor (Homo sapiens)"
recorded_metric = "inhibition at 1 µM"
measured_value = 101

[[record]]
smiles = "O=S(=O)(NCCCCN1CCN(c2nsc3ccccc23)CC1)c1ccc(Cl)c(Cl)c1"
target_or_system = "serotoninergic 5-HT2A receptor (Homo sapiens)"
recorded_metric = "inhibition at 1 µM"
measured_value = 91

[[record]]
smiles = "O=S(=O)(NCCCN1CCN(c2cccc3c2OCCO3)CC1)c1cccc(F)c1"
target_or_system = "serotoninergic 5-HT2A receptor (Homo sapiens)"
recorded_metric = "inhibition at 1 µM"
measured_value = 66


----------
activation at 1 µM values by entry
# target_or_system: serotoninergic 5-HT6 receptor (Homo sapiens, UniProt P50406)
# Sequence (P50406 whole entry): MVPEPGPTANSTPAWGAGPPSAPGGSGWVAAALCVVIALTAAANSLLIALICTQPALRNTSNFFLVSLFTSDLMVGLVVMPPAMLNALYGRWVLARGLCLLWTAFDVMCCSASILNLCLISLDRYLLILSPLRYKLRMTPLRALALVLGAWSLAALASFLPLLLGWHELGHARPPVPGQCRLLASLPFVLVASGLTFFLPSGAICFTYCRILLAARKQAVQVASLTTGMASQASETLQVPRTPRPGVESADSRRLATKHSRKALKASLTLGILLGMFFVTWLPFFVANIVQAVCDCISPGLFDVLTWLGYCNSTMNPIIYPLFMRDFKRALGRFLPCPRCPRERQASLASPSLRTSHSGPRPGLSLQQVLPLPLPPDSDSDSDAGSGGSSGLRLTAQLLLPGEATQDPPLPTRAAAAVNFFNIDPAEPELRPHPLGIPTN
# assay_details: Cellular functional assay, serotoninergic 5-HT6 receptor (agonism/antagonism)
# Format: cell-based
# experimental_parameters: agonist effect, percent of control specific agonist response; compounds tested at 1×10^−6M; read-out: 5-HT6-ag [%]
recorded_metric: activation at 1 µM

[[record]]
smiles = "O=S(=O)(NCCN1CCC(c2noc3cc(F)ccc23)CC1)c1cccc2ccccc12"
recorded_metric = "activation at 1 µM"
measured_value = "0%"

[[record]]
smiles = "Cc1c(S(=O)(=O)NCCCN2CCC(c3noc4cc(F)ccc34)CC2)sc2ccc(F)cc12"
recorded_metric = "activation at 1 µM"
measured_value = "-1%"

[[record]]
smiles = "O=S(=O)(NCCCCN1CCN(c2cccc3[nH]ccc23)CC1)c1cccc(F)c1"
recorded_metric = "activation at 1 µM"
measured_value = "0%"

[[record]]
smiles = "O=S(=O)(NCCCCN1CCN(c2nsc3ccccc23)CC1)c1cc2ccc(Cl)cc2s1"
recorded_metric = "activation at 1 µM"
measured_value = "0%"


----------
activation at 1 µM values by entry
# target_or_system: dopaminergic D2 receptor (Homo sapiens)
# Sequence (P14416 whole entry): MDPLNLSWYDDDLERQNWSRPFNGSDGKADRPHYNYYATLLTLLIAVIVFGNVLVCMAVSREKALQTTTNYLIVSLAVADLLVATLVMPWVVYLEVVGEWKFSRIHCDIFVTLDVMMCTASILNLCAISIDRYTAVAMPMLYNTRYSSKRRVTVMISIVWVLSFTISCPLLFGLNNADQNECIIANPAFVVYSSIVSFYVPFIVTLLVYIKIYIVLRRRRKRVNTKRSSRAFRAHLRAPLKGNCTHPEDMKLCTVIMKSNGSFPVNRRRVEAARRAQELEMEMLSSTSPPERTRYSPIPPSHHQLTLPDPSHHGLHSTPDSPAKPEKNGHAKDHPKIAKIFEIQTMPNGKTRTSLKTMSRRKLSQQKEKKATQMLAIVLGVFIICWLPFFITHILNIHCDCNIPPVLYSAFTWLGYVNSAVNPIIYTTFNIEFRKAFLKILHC
# assay_details: Cellular functional assay, dopaminergic D2 receptor (agonism/antagonism)
# Assay type: cell-based
# experimental_parameters: HEK293; agonist effect, percent of control specific agonist response (3 μM dopamine for control); 1×10^−6 M; D2S (h), HEK-293 cells; read-out: D2-ag [%]
recorded_metric: activation at 1 µM (%)

[[record]]
molecule = "O=S(=O)(NCCCCN1CCN(c2nsc3ccccc23)CC1)c1cc2ccc(Cl)cc2s1 [Compound 241]"
recorded_metric = "activation at 1 µM"
measured_value = 6

[[record]]
molecule = "Cc1c(S(=O)(=O)NCCCCN2CCC(c3noc4cc(F)ccc34)CC2)sc2ccc(F)cc12 [Compound 101]"
recorded_metric = "activation at 1 µM"
measured_value = 6

[[record]]
molecule = "O=S(=O)(NCCCCN1CCC(c2noc3cc(F)ccc23)CC1)c1ccc2ccccc2c1 [Compound 18]"
recorded_metric = "activation at 1 µM"
measured_value = -1


----------
# target_or_system: serotonine transporter (SERT) receptor (Homo sapiens)
# Construct: expressed in transfected cells; host or cells: CHO cells
# Sequence (P31645 whole entry): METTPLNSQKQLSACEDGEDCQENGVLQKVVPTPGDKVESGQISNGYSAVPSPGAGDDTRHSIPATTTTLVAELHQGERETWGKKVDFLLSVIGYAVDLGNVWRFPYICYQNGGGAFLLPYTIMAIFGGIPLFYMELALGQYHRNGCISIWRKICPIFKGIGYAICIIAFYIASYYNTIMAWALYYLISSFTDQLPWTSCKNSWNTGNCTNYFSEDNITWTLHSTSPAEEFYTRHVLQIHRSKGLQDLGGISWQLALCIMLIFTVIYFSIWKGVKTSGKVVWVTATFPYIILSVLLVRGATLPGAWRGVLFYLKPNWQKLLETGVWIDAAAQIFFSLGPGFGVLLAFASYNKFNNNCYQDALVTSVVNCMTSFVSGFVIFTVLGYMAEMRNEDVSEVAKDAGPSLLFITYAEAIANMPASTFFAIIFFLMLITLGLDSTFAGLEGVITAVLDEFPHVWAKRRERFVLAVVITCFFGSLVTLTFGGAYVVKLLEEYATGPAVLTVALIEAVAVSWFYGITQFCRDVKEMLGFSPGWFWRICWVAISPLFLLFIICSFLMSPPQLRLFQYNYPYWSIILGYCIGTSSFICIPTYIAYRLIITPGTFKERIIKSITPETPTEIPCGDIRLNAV
# assay_details: Binding assay SERT (h), [3H]imipramine, CHO cells
# experimental_parameters: read-out: SERT [%]
recorded_metric: inhibition at 1 µM (%)

[[record]]
smiles = "O=c1[nH]c2cccc(N3CCN(CCCNS(=O)(=O)c4ccc5ccccc5c4)CC3)c2[nH]1"
recorded_metric = "inhibition at 1 µM"
value_unit = "%"
measured_value = -3

[[record]]
smiles = "O=S(=O)(NCCCCN1CCN(c2noc3ccccc23)CC1)c1cccc(F)c1"
recorded_metric = "inhibition at 1 µM"
value_unit = "%"
measured_value = 2

[[record]]
smiles = "Cc1[nH]c2ccc(Cl)cc2c1C1=CCN(CCCCNS(=O)(=O)c2cccc(O)c2)CC1"
recorded_metric = "inhibition at 1 µM"
value_unit = "%"
measured_value = 29

[[record]]
smiles = "O=S(=O)(NCCCN1CCN(c2nsc3ccccc23)CC1)c1c[nH]c2ncccc12"
recorded_metric = "inhibition at 1 µM"
value_unit = "%"
measured_value = 12


----------
# target_or_system: serotoninergic 5-HT2A receptor (Homo sapiens)
# assay_details: Binding assay 5-HT2A (h), [3H]ketanserin, HEK-293 cells
# Design: expressed in transfected cells; host or cells: HEK-293 cells
# experimental_parameters: read-out: 5-HT2A
recorded_metric: inhibition at 1 µM

[[record]]
compound = "O=C1COc2c(cccc2N2CCN(CCCCNS(=O)(=O)c3ccc4ccccc4c3)CC2)N1 [Compound 427]"
recorded_metric = "inhibition at 1 µM"
measured_value = "49%"

[[record]]
compound = "O=C1COc2c(cccc2N2CCN(CCCCNS(=O)(=O)c3cccc(Cl)c3)CC2)N1 [Compound 209]"
recorded_metric = "inhibition at 1 µM"
measured_value = "29%"

[[record]]
compound = "O=S(=O)(NCCCCN1CCC(c2noc3cc(F)ccc23)CC1)c1cccc(C(F)(F)F)c1 [Compound 303]"
recorded_metric = "inhibition at 1 µM"
measured_value = "96%"

[[record]]
compound = "O=S(=O)(NCCCCN1CCC(c2noc3cc(F)ccc23)CC1)c1cnc2ccccn12 [Compound 322]"
recorded_metric = "inhibition at 1 µM"
measured_value = "94%"

[[record]]
compound = "O=S(=O)(NCCCN1CCC(c2noc3cc(F)ccc23)CC1)c1ccsc1 [Compound 340]"
recorded_metric = "inhibition at 1 µM"
measured_value = "104%"

[[record]]
compound = "Cc1cccc(S(=O)(=O)NCCCN2CCN(c3cccc4c3OCCO4)CC2)c1 [Compound 414]"
recorded_metric = "inhibition at 1 µM"
measured_value = "76%"

[[record]]
compound = "O=S(=O)(NCCCN1CCC(c2noc3cc(F)ccc23)CC1)c1cccc(F)c1 [Compound 108]"
recorded_metric = "inhibition at 1 µM"
measured_value = "88%"

[[record]]
compound = "O=S(=O)(NCCCCN1CCN(c2noc3ccccc23)CC1)c1ccc2cc(Cl)ccc2c1 [Compound 79]"
recorded_metric = "inhibition at 1 µM"
measured_value = "91%"

[[record]]
compound = "Cc1cc(S(=O)(=O)NCCCCN2CCC(c3noc4cc(F)ccc34)CC2)c(C)s1 [Compound 309]"
recorded_metric = "inhibition at 1 µM"
measured_value = "88%"

[[record]]
compound = "N#Cc1cccc(S(=O)(=O)NCCCN2CCN(c3nsc4ccccc34)CC2)c1 [Compound 74]"
recorded_metric = "inhibition at 1 µM"
measured_value = "102%"

[[record]]
compound = "O=S(=O)(NCCCCN1CCN(c2nsc3ccccc23)CC1)c1csc2ccccc12 [Compound 240]"
recorded_metric = "inhibition at 1 µM"
measured_value = "101%"

[[record]]
compound = "O=S(=O)(NCCCCN1CCN(c2nsc3ccccc23)CC1)c1ccc2cc(Cl)ccc2c1 [Compound 61]"
recorded_metric = "inhibition at 1 µM"
measured_value = "100%"

[[record]]
compound = "O=S(=O)(NCCCN1CCC(c2noc3cc(F)ccc23)CC1)c1cccc2scnc12 [Compound 351]"
recorded_metric = "inhibition at 1 µM"
measured_value = "103%"


----------
# System: adrenergic α1 receptor
# assay_details: Binding assay α1 (non-selective), [3H]prazosin, rat cerebral cortex
# experimental_parameters: percent inhibition of control specific binding; compounds tested at 1×10^−6 M
Returns: string. Value is YES if measured α1 [%] is below 90%, and NO if it is greater than or equal to it.

[[record]]
molecule = "O=S(=O)(NCCCN1CCN(c2nsc3ccccc23)CC1)c1cc2ccc(Cl)cc2s1 [Compound 264]"
class = "YES"

[[record]]
molecule = "Cc1[nH]c2ccc(Cl)cc2c1C1=CCN(CCCCNS(=O)(=O)c2cccc(F)c2)CC1 [Compound 139]"
class = "YES"

[[record]]
molecule = "O=c1[nH]c2ccc(S(=O)(=O)NCCCCN3CCN(c4cccc5c4OCCO5)CC3)cc2o1 [Compound 403]"
class = "NO"

[[record]]
molecule = "O=S(=O)(NCCCN1CCN(c2nsc3ccccc23)CC1)c1ccc2cc(Cl)ccc2c1 [Compound 62]"
class = "YES"

[[record]]
molecule = "O=S(=O)(NCCCCN1CCN(c2nsc3ccccc23)CC1)c1ccc(-c2ccccc2)cc1 [Compound 237]"
class = "YES"

[[record]]
molecule = "O=S(=O)(NCCCCN1CCC(c2noc3cc(F)ccc23)CC1)c1c[nH]c2ncccc12 [Compound 323]"
class = "NO"

[[record]]
molecule = "COc1cccc(S(=O)(=O)NCCCN2CCC(c3noc4cc(F)ccc34)CC2)c1 [Compound 332]"
class = "NO"

[[record]]
molecule = "O=S(=O)(NCCCCN1CCN(c2noc3ccccc23)CC1)c1ccc2c(c1)CCO2 [Compound 289]"
class = "NO"

[[record]]
molecule = "Cc1[nH]c2ccc(Cl)cc2c1C1=CCN(CCCCNS(=O)(=O)c2cccc(O)c2)CC1 [Compound 369]"
class = "YES"

[[record]]
molecule = "O=S(=O)(NCCCN1CCC(c2noc3cc(F)ccc23)CC1)c1ccc(F)cc1 [Compound 326]"
class = "NO"

[[record]]
molecule = "O=S(=O)(NCCCCN1CCN(c2cccc3c2OCCO3)CC1)c1ccc2c(c1)OCO2 [Compound 404]"
class = "NO"

[[record]]
molecule = "Cn1ccc2ccc(S(=O)(=O)NCCCCN3CCC(c4noc5cc(F)ccc45)CC3)cc21 [Compound 311]"
class = "NO"

[[record]]
molecule = "O=S(=O)(NCCCN1CCC(c2noc3cc(F)ccc23)CC1)c1ccc(OC(F)(F)F)cc1 [Compound 336]"
class = "NO"

